Test system: erythrocytes infected with 3D7 trophozoites
Format: cell-based, Plasmodium falciparum
Conditions: sheet Ratio; Exp2, 1hr
Peptide text beside a SMILES is read from it.
READOUT KIND: Ratio of metabolite abundance, Exp2_1hr
Give the figure only, with no unit attached.

These solved cases illustrate the format of a correct answer.
| COMPOUND | STUDY TARGET | Ratio of metabolite abundance, Exp2_1hr |
| --- | --- | --- |
| Nc1ccn([C@@H]2O[C@H](COP(=O)(O)OP(=O)(O)OP(=O)(O)O)[C@@H](O)[C@H]2O)c(=O)n1 | erythrocytes infected with 3D7 trophozoites | 0.8987 |
| Nc1ncnc2c1ncn2[C@@H]1O[C@H](CSCC[C@H](N)C(=O)O)[C@@H](O)[C@H]1O | erythrocytes infected with 3D7 trophozoites | 0.9429 |
| O=P(O)(O)OC[C@H]1OC(OP(=O)(O)OP(=O)(O)O)[C@H](O)[C@@H]1O (stereo partly shown) [5-Phosphoribosyl-1-pyrophosphate] | erythrocytes infected with 3D7 trophozoites | 2.035 |
| CC(C)[C@H](NC(=O)[C@@H](N)CCC(=O)O)C(=O)NCC(=O)NCC(=O)O [EVGG] (H-EVGG-OH) | erythrocytes infected with 3D7 trophozoites | 1.036 |
| O=c1ccn([C@@H]2O[C@H](COP(=O)(O)O)[C@@H](O)[C@H]2O)c(=O)[nH]1 | erythrocytes infected with 3D7 trophozoites | 0.4945 |
| CCCCC/C=C\C/C=C\C/C=C\CCCCCCC(=O)O | erythrocytes infected with 3D7 trophozoites | 0.832 |

Lookup: # get_value(readout='Ratio of metabolite abundance, Exp2_1hr', item= O=c1ccn([C@@H]2O[C@H](COP(=O)(O)OP(=O)(O)O)[C@@H](O)[C@H]2O)c(=O)[nH]1 )
Found: 1.213

Lookup: Another compound: CC(C)[C@H](NC(=O)[C@H](CCC(=O)O)NC(=O)[C@@H](N)CC(=O)O)C(=O)NCC(=O)O [DEVG] (H-DEVG-OH)
Found: 0.8701

Lookup: Another compound: O=C(O)[C@@H]1CC(O)CN1 (stereo partly drawn) [Hydroxy-L-proline]
Found: 1.182

Lookup: Another compound: O=C(O)[C@H](O)COP(=O)(O)O [3-Phosho-D-glycerate]
Found: 1.017

Lookup: Another compound: Nc1ccn([C@H]2C[C@H](O)[C@@H](COP(=O)(O)OP(=O)(O)O)O2)c(=O)n1
Found: 1.1851

Lookup: Another compound: N[C@@H](CCC(=O)O)C(=O)N[C@@H](CO)C(=O)N[C@@H](Cc1ccccc1)C(=O)NCC(=O)O [ESFG] (H-ESFG-OH)
Found: 1.518
